A collection of molecules and their measured pEC50
target: UniProtKB G5EF15; assay: inhibitors of POS-1/mex-3 RNA binding, dose response, biochemical, fluorescence polarization (AID 1964)
Sequence (G5EF15 whole entry): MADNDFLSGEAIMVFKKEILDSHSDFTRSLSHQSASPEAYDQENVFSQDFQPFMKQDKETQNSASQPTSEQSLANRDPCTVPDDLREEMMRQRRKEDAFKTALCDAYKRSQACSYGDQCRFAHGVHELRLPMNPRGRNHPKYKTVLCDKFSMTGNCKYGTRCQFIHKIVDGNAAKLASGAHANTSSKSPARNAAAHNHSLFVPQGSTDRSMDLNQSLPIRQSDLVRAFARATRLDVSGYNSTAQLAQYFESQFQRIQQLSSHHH
pEC50: −log10 of the molar value.
Measured Attribute: pEC50

molecule=Cc1cccc(NNC2=c3cc(Br)ccc3=NC2=O)c1 measured_attribute=pEC50 bound_operator== numeric_result=4.17
molecule=O=C1N=C(N2C=CC(c3ccncc3)C=C2)C(=CN=NC(=O)c2ccccc2O)S1 measured_attribute=pEC50 bound_operator== numeric_result=4.92
molecule=C=CCN1C(=O)NC(=O)C(=CNc2ccc(N(CC)CC)cc2)C1=O measured_attribute=pEC50 bound_operator== numeric_result=3.96
molecule=O=C(NN=CC1=CC(=O)C(=O)CC1)NN=CC1=CC(=O)C(=O)CC1 measured_attribute=pEC50 bound_operator== numeric_result=4.79
molecule="COc1cc(OC)c(C2C3=C(CC(C)CC3=O)OC(=N)C2C#N)cc1OC (configuration not stated)" measured_attribute=pEC50 bound_operator=< numeric_result=3.52
molecule="CCCN1CCC2=C(C#N)C(=N)C(C#N)(C#N)C(c3cc(OC)ccc3OC)C2C1 (configuration not stated)" measured_attribute=pEC50 bound_operator== numeric_result=4.55
molecule="COc1ccc(C2C3=C(CC(C)(C)CC3=O)OC(=N)C2C#N)c(OC)c1OC (configuration not stated)" measured_attribute=pEC50 bound_operator=< numeric_result=3.52
molecule=CC1=C(C#N)C(=O)N(C)C(=O)C1=CN measured_attribute=pEC50 bound_operator=< numeric_result=3.52
molecule="c1ccc(C2=Nc3nnnn3C(c3cccs3)C2)cc1 (configuration not stated)" measured_attribute=pEC50 bound_operator=< numeric_result=3.52
molecule="Cc1sc2ncnc(N=NC(C)c3ccccn3)c2c1C (configuration not stated)" measured_attribute=pEC50 bound_operator== numeric_result=4.63
molecule=COC(=O)c1ccc(-n2c(C)cc(CN=Nc3nc(C)cc(=O)[nH]3)c2C)cc1 measured_attribute=pEC50 bound_operator=< numeric_result=3.52
molecule=O=C(O)c1ccc(S(=O)(=O)N=C2C=C(Nc3ccccc3F)C(=O)c3ccccc32)cc1 measured_attribute=pEC50 bound_operator== numeric_result=3.93
molecule=CCCCCCN1C(=O)NC(=O)C(=CNCCCn2ccnc2)C1=O measured_attribute=pEC50 bound_operator=< numeric_result=3.52
molecule=COc1ccc(OC)c(N2C(=O)NC(=O)C(=Cc3c[nH]c4ccccc34)C2=O)c1 measured_attribute=pEC50 bound_operator=< numeric_result=3.52
molecule="CCCSc1nnc(N2C(=O)C(=O)C(C(=O)c3ccco3)C2c2ccccc2F)s1 (configuration not stated)" measured_attribute=pEC50 bound_operator=< numeric_result=3.52
molecule="COc1ccc(C2C3=C(CCCC3=O)OC(=N)C2C#N)cc1OC (configuration not stated)" measured_attribute=pEC50 bound_operator=< numeric_result=3.52
molecule="COc1ccc(C2CC(c3ccc(Br)s3)=Nc3ncnn32)cc1OC (configuration not stated)" measured_attribute=pEC50 bound_operator== numeric_result=5.11
molecule=Cc1c(NC=C2C(=O)NC(=O)N(Cc3ccco3)C2=O)c(=O)n(-c2ccccc2)n1C measured_attribute=pEC50 bound_operator=< numeric_result=3.52
molecule="CSc1nncc(C(C)N=Nc2ccccc2)n1 (configuration not stated)" measured_attribute=pEC50 bound_operator== numeric_result=4.38
molecule="COc1ccc(C(=O)CC2=NCC3c4ccccc4CCN3C2=O)cc1 (configuration not stated)" measured_attribute=pEC50 bound_operator=< numeric_result=3.52
molecule="COc1ccc(C2C3=C(CCCC3=O)OC(=N)C2C#N)c(OC)c1OC (configuration not stated)" measured_attribute=pEC50 bound_operator=< numeric_result=3.52
molecule="Cc1cc(N2C(=O)C(=O)C(C(=O)c3cc4ccccc4o3)C2c2ccc([N+](=O)[O-])cc2)no1 (configuration not stated)" measured_attribute=pEC50 bound_operator=< numeric_result=3.52
